- Measurement Target: T1, CD28 endogenously expressed on Jurkat/IL2 reporter cells (human, UniProt P10747 19-220)
- T1 construct: whole, on cells; Target on Jurkat cells; also called Jurkats (CD28)
- Procedure Details: flow cytometry, Jurkat cells (CD28), Fc fusion at 33.3 nM
Measured Attribute: MFI at 33.3 nM (MFI)

Binder | Test Result
CD80 E35D/M47V/N48K/K89N IgV-Fc (Fc fusion, not shown: small tags and cut ends; a dimerising Fc or GST) VIHVTKEVKEVATLSCGHNVSVEELAQTRIYWQKDKKMVLTMMSGDVKIWPEYKNRTIFDITNNLSIVILALRPSDEGTYECVVLKYENDAFKREHLAEVTLSVKAD | 701
CD80 E35D/N48K/V68M IgV-Fc (Fc fusion, not shown: small tags and cut ends; a dimerising Fc or GST) VIHVTKEVKEVATLSCGHNVSVEELAQTRIYWQKDKKMVLTMMSGDMKIWPEYKNRTIFDITNNLSIMILALRPSDEGTYECVVLKYEKDAFKREHLAEVTLSVKAD | 642
CD80 N48K/K89N IgV-Fc (Fc fusion, not shown: small tags and cut ends; a dimerising Fc or GST) VIHVTKEVKEVATLSCGHNVSVEELAQTRIYWQKEKKMVLTMMSGDMKIWPEYKNRTIFDITNNLSIVILALRPSDEGTYECVVLKYENDAFKREHLAEVTLSVKAD | 170
